method: in vitro
condition set: African green monkey
property name: CC50 (mg/L)
Numbers only; they are read as mg/L.

Ask | // CC50 lookup, key: NC(=O)c1ncn([C@@H]2O[C@H](CO)[C@@H](O)[C@H]2O)n1 [ribavirin, reference compound]
Reply | 190

---

method: in vitro
condition set: African green monkey
property name: CC50

Ask | Endpoint output: CC50 of CC(C)C[C@H](NC(=O)OCc1ccccc1)C(=O)NC(CCC(=O)N(C)C)C(=O)CF (mixture of isomers) [EP128533, reference compound] . Value?
Reply | > 100 µg/mL

---

Tested on: HIV-1LAI
method: HIV-1 replication reverse transcriptase assay in PBMC
Format: cell-based, HIV type-1
condition set: Human immunodeficiency virus 1, PBMC, experiment 2; PBMC; 9: fresh DMSO stock
property name: pEC50
pEC50 field: float, defined as -log10 of concentration (mol/L).

Ask | Recorded pEC50 of Cc1cn([C@H]2C[C@H](N=[N+]=[N-])[C@@H](CO)O2)c(=O)[nH]c1=O [AZT, 3′-azido-3′-deoxythymidine, reference compound] , please.
Reply | 8.04

Cited source: paper PMC7734623
